Source: paper PMC7429951

# Assay summary: in vitro
# Assay context: human, A549 cells (lung carcinoma)
pIC50: −log10 of the molar value.
Measurement label: pIC50

Recorded pIC50, per entry:
In [3]: df
Out[3]:
                                   compound  assay_result
0  CC(=O)c1ccc(NC(=O)CS)cc1 [Compound 6, reference compound]        < 4.00
1  CC(=O)c1ccc(N2C(=O)CC(S)C2=O)cc1 (stereo not drawn)        < 4.00

Shifting focus to the compound that follows.
Q) Looking for the measured pIC50 of O=C1CC(S)C(=O)N1c1ccc(Cl)c(Cl)c1 (stereo not drawn) , can you help?
A) < 4.00

* * *

# Tested on: peptidase domain of ColH (ColH-PD) (Hathewaya histolytica, UniProt Q46085)
# Sequence (Q46085 331-721 limits assumed): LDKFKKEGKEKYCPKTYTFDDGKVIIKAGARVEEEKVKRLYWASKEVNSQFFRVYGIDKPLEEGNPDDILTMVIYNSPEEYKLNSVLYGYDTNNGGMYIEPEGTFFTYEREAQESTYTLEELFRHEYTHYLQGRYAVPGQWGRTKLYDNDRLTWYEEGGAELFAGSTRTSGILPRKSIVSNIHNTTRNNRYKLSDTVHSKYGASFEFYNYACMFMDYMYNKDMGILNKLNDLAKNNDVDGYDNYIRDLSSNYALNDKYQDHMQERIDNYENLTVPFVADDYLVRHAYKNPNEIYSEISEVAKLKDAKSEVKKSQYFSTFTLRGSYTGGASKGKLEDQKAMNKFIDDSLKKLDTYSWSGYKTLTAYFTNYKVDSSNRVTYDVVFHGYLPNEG
# Assay summary: biochemical
# Parameters: species or system Clostridium histolyticum
# Assay context: read-out: ColH-PD % inhibition @ 1 μM
Measurement label: inhibition at 1 µM (%)
Give the quantity in %, number only.

>>> df
                                   molecule   measurement_label  assay_result
0  O=C1CC(S)C(=O)N1c1ccc(Cl)cc1 (centres unmarked)  inhibition at 1 µM            33
1  Cc1ccc(N2C(=O)CC(S)C2=O)cc1 (centres unmarked)  inhibition at 1 µM            34
2  O=C1CC(S)C(=O)N1c1c(Cl)cccc1Cl (centres unmarked)  inhibition at 1 µM             8

Q) What measured inhibition at 1 µM is associated with Cc1ccc(N2C(=O)CC(S)C2=O)cc1C (centres unmarked) on peptidase domain of ColH (ColH-PD) (Hathewaya histolytica, UniProt Q46085)?
A) 7

Q) Now consider COc1cccc(N2C(=O)CC(S)C2=O)c1 (centres unmarked) and answer again.
A) -3

Q) Now consider COc1ccc(N2C(=O)CC(S)C2=O)cc1OC (centres unmarked) and answer again.
A) 3

Q) Now consider O=C1CC(S)C(=O)N1c1cccc(-c2ccccc2)c1 (centres unmarked) and answer again.
A) 7

Q) Now consider Cc1ccc(Cl)c(C)c1N1C(=O)CC(S)C1=O (centres unmarked) and answer again.
A) 6

Q) Now consider O=C1CC(S)C(=O)N1c1ccc(Cl)c(Cl)c1 (centres unmarked) and answer again.
A) 12

Q) Now consider O=C1CC(CS)C(=O)N1c1ccc(Cl)c(Cl)c1 (centres unmarked) and answer again.
A) 2

* * *

# Assay summary: in vitro
# Assay context: human, HepG2 cells (hepatocellular carcinoma)
In this section we review reported IC50 values for a set of molecules.

Recorded IC50, per entry:
                                   molecule  measurement_label  assay_result
0  O=C1CC(S)C(=O)N1c1ccc(Cl)c(Cl)c1 (stereo not drawn)               IC50      > 100 µM
1  CC(=O)c1ccc(N2C(=O)CC(S)C2=O)cc1 (stereo not drawn)               IC50      > 100 µM

Shifting focus to the molecule that follows.
Q) Looking for the measured IC50 of CC(=O)c1ccc(NC(=O)CS)cc1 [Compound 6, reference compound] , can you help?
A) > 100 µM

* * *

In this section we review reported inhibition at 1 µM values for a set of molecules.
# Tested on: peptidase domain of ColH (ColH-PD) (Hathewaya histolytica, UniProt Q46085)
# Assay summary: biochemical
# Design: species or system Clostridium histolyticum
# Assay context: read-out: ColH-PD % inhibition @ 1 μM
Give the quantity in %, number only.

Recorded inhibition at 1 µM, per entry:
>>> df
                                   molecule                                 tested_on  units_of_measure  assay_result
0  Cc1ccc(Cl)cc1N1C(=O)CC(S)C1=O (stereo not shown)  peptidase domain of ColH (ColH-PD) (Hathewaya histolytica, UniProt Q46085)                 %             6
1  O=C1CC(CS)C(=O)N1c1ccc(F)c(F)c1 (stereo not shown)  peptidase domain of ColH (ColH-PD) (Hathewaya histolytica, UniProt Q46085)                 %             2

Shifting focus to the molecule that follows.
Q) Looking for the measured inhibition at 1 µM of O=C1CC(S)C(=O)N1c1ccc(OC(F)(F)F)c(Cl)c1 (stereo not shown) , can you help?
A) 18

* * *

In this section we review reported inhibition at 1 µM values for a set of compounds.
# Tested on: peptidase domain of ColH (ColH-PD) (Hathewaya histolytica)
# Assay summary: biochemical
# Set-up: species or system Clostridium histolyticum
# Assay context: read-out: ColH-PD % inhibition @ 1 μM
Give the quantity in %, number only.

>>> print(df.to_string())
                                   compound                                 tested_on  assay_result
0  CC(=O)SCC1CC(=O)N(c2ccc(C(C)=O)cc2)C1=O (stereo not shown) [Compound 42]  peptidase domain of ColH (ColH-PD) (Hathewaya histolytica)             2
1  COc1ccc(N2C(=O)CC(CSC(C)=O)C2=O)cc1 (stereo not shown) [Compound 43]  peptidase domain of ColH (ColH-PD) (Hathewaya histolytica)             4
2  CC(=O)SCC1CC(=O)N(c2ccccc2)C1=O (stereo not shown) [Compound 40]  peptidase domain of ColH (ColH-PD) (Hathewaya histolytica)           -15
3  O=C1CC(S)C(=O)N1c1ccccc1Cl (stereo not shown) [Compound 10]  peptidase domain of ColH (ColH-PD) (Hathewaya histolytica)             8
4  CC(=O)SC1CC(=O)N(c2ccc(OC(F)(F)F)c(Cl)c2)C1=O (stereo not shown) [Compound 30]  peptidase domain of ColH (ColH-PD) (Hathewaya histolytica)           -11

Q) Looking for the measured inhibition at 1 µM of COc1ccc(N2C(=O)CC(SC(C)=O)C2=O)cc1 (stereo not shown) [Compound 28] , can you help?
A) 24

Q) Now consider COc1ccc(N2C(=O)CC(S)C2=O)c(OC)c1 (stereo not shown) [Compound 21] and answer again.
A) 2

Q) Now consider CC(=O)SCC1CC(=O)N(c2ccc(Cl)c(Cl)c2)C1=O (stereo not shown) [Compound 41] and answer again.
A) -1

* * *

In this section we review reported inhibition at 1 µM values for a set of molecules.
# Tested on: peptidase domain of ColH (ColH-PD) (Hathewaya histolytica, UniProt Q46085)
# Assay summary: biochemical
# Design: species or system Clostridium histolyticum
# Assay context: read-out: ColH-PD % inhibition @ 1 μM
Give the quantity in %, number only.

                                   molecule                                 tested_on  units_of_measure  assay_result
0  O=C1CC(S)C(=O)N1c1cccc(Cl)c1 (centres unmarked)  peptidase domain of ColH (ColH-PD) (Hathewaya histolytica, UniProt Q46085)                 %             0
1  COc1ccccc1N1C(=O)CC(S)C1=O (centres unmarked)  peptidase domain of ColH (ColH-PD) (Hathewaya histolytica, UniProt Q46085)                 %             0
2  COc1ccc(N2C(=O)CC(S)C2=O)cc1 (centres unmarked)  peptidase domain of ColH (ColH-PD) (Hathewaya histolytica, UniProt Q46085)                 %            74

Q) Looking for the measured inhibition at 1 µM of CC(=O)SC1CC(=O)N(c2ccc(Cl)c(Cl)c2)C1=O (centres unmarked) , can you help?
A) -1

Q) Now consider O=C1CC(S)C(=O)N1c1ccc(F)c(F)c1 (centres unmarked) and answer again.
A) 2
